Reported composite z-score by item:
assay.overview: small-molecule binders of probe aNOTCH3, primary screen, biochemical, small-molecule microarray, 635/667 nm fluorescence (AID 1120);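 note: probe is a biotin-tagged antibody raised against NOTCH3 rather than NOTCH3 protein; score merges spot fluorescence near 667 nm with spot signal to noise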
condition: higher = more signal
Format: numeric value only, no unit, no commentary.

cpd.smiles | reported.result
CN(C)CCCC[C@@H]1NC(=O)[C@@H]2C[C@H](C(=O)NCCCCCNC(=O)CS)[C@H](c3cccc(OCCO)c3)N2C1=O | -0.15
COCCOC(=O)N1C(=O)[C@@]2(c3ccccc31)[C@H](C(=O)Nc1nc3ccccc3s1)[C@H]1C(=O)O[C@H](c3ccccc3)[C@H](c3ccccc3)N1[C@@H]2c1ccc(O)cc1 | 0.288
C=C(C1=CCN(S(=O)(=O)c2ccc(C)cc2)C1)[C@@H](OC(C)=O)[C@@H]1CCCN1S(=O)(=O)c1ccccc1[N+](=O)[O-] | -0.127
C=CC[C@@]1(C(=O)NCc2ccccc2)N=C(c2ccc(OCCCO)cc2)O[C@@H]1c1ccccc1 | 0.0762
O=C(NCC(F)(F)F)[C@@H]1c2ccccc2C(=O)N(C2Cc3ccccc3C2)[C@H]1c1ccc(CO)cc1 | -0.0362
COC(=O)C(CC#Cc1ccc2c(c1)[C@]1(C(=O)N2)[C@H](C(=O)O)[C@H]2C(=O)O[C@H](c3ccccc3)[C@H](c3ccccc3)N2[C@@H]1c1ccc(OCCO)cc1)C(=O)OC | 0.123
C[N+](C)(C)CCCC[C@@H]1NC(=O)[C@H]2C[C@@H](C(=O)NCCCCCN)[C@@H](c3cccc(OCCO)c3)N2C1=O | 0.23
COCCOC(=O)N1C(=O)[C@@]2(c3cc(C#CCCO)ccc31)[C@H](c1ccccc1OCCO)N1[C@H](c3ccccc3)[C@H](c3ccccc3)OC(=O)[C@H]1[C@@H]2C(=O)NC[C@H](O)c1ccccc1 | -0.0197

Entry under review: `Cc1ccc(N2C(=O)c3ccccc3[C@](C)(C(=O)NCC(F)(F)F)[C@@H]2c2ccc(CO)cc2)nc1` . Reported composite z-score?
-0.403

Return reported composite z-score; argument: `C=C(/C(=C/C[C@H](OC(C)=O)c1cccc(OCCO)c1)c1cc(C(=O)OC)ccc1OC)C(C)C`
-0.0918

Item under review: `CCCC[C@@H](O)C1=C(C)C[C@H]2C(=O)N(C)C(=O)[C@H]2[C@H]1CO` . Reported composite z-score?
-0.132

Field request: composite z-score | item: `COCCOC(=O)N1C(=O)[C@@]2(c3cc(C#CC4(O)CCCCCC4)ccc31)[C@H](C(=O)NC[C@H](O)c1ccccc1)[C@H]1C(=O)O[C@H](c3ccccc3)[C@H](c3ccccc3)N1[C@@H]2c1ccccc1OCCO`
0.0596

Bench note: what composite z-score did `COC(=O)C(CC#Cc1ccc2c(c1)[C@]1(C(=O)N2)[C@H](C(N)=O)[C@H]2C(=O)O[C@H](c3ccccc3)[C@H](c3ccccc3)N2[C@@H]1c1ccc(O)cc1)C(=O)OC` show?
0.122

* * *

System: glycogen synthase kinase-3 (GSK3A per assay name; protocol says GSK3B)
assay.overview: GSK3 binders on small-molecule microarrays, primary screen, biochemical, small-molecule microarray, 635 nm fluorescence, GSK3A (AID 1103); note: the record names both GSK3A and GSK3B
condition: small-molecule microarray binding, fluorescence 635 nm; higher = more signal
Threshold rule: composite z-score greater than or equal to -0.6 is T; below that, F.

compound | assigned.label
C=C(COC)C(=O)CC[C@H](OC(=O)c1cccnc1)c1cccc(OCCO)c1 | T
COc1ccc([Si](C)(C)[C@@H]2[C@@H](CCn3cc(CCO)nn3)O[C@]3(C(=O)N(Cc4ccc(N5C(=O)c6cccc7cccc5c67)cc4)c4ccccc43)[C@H]2C)cc1 | T

Does the compound CN1C=C(C(=O)OCCS(C)(=O)=O)C(C(=O)OCCS(C)(=O)=O)=CC(CCCO)=CC1c1cccs1 (stereo not given) have recorded composite z-score that is -0.6 or more?
T

Please check the record `CCOC(=O)C[C@H]1[C@H](OC(=O)c2ccc(C(=O)c3ccccc3)cc2)[C@@H](NC(=O)Cc2ccc(OC)cc2)c2cc(OCCCO)ccc2N1C(=O)Cc1ccc(OC)cc1` and state if its composite z-score is at or above -0.6.
T

Given the entry `[N-]=[N+]=NCc1ccccc1C[C@]1(C(=O)NCc2ccccc2)N=C(c2ccc(OCCCO)cc2)O[C@H]1c1ccccc1` , answer whether its composite z-score meets or surpasses -0.6.
T

Form field: composite z-score at least -0.6? Entry: `CC(C)C[C@@H]1NC(=O)[C@H]2C[C@@H](C(=O)NCCCC[N+](C)(C)C)[C@@H](c3cccc(OCCO)c3)N2C1=O`
T

Reported composite z-score reaches at least -0.6 for COC(=O)C1=CC(c2ccc(CO)cc2)=CC(C2CC2)N(C)C=C1C(=O)OC (stereo not given) ?
T

Please indicate if the recorded composite z-score for `C[N+](C)(C)CCCC[C@@H]1NC(=O)[C@@H]2C[C@H](C(=O)NCCCCCNC(=O)CS)[C@H](c3ccc(O)cc3)N2C1=O` meets or exceeds -0.6.
F

Is the recorded value of composite z-score equal to or greater than -0.6 for this compound? `CC(C)NC(=O)[C@@H]1c2ccccc2C(=O)N(Cc2cc(F)cc(C(F)(F)F)c2)[C@H]1c1ccc(CO)cc1`
F

Tell me whether composite z-score is at least -0.6 here: `O=C1N(CCS(=O)(=O)c2ccccc2)Cc2ccccc2[C@@H]2OC(c3ccc(OCCCO)cc3)=N[C@]12Cc1ccccc1`
T

Entry `O=C1c2ccccc2C(=O)c2cc([C@H]3Oc4ccccc4S(=O)(=O)N4CCC[C@@H]34)ccc21` : is its composite z-score no less than -0.6?
F

Decide: composite z-score of `C=CCC1(CC=C)C[C@H]2CO[C@H](c3ccc(OC)cc3)N2C1=O` >= -0.6?
T

Answer whether composite z-score of CCCCCN1CC=CC23O[C@@H]4/C=C\CCC(C)OC(=O)C4[C@H]2C(=O)N(CCCO)[C@@H]3C1=O (stereo not given in full) is greater than or equal to -0.6.
F

Does composite z-score meet or surpass -0.6 for `COCCCNC(=O)[C@@]1(Cc2ccccc2)N=C(c2ccc(OCCCO)cc2)O[C@H]1c1ccccc1N=[N+]=[N-]` ?
T

* * *

assay.overview: NIH:OVCAR-3 ovarian cancer cell cytotoxicity, dose response, PAX8 inhibitor project, plate reader, dry powder samples (AID 743044)
condition: NIH:OVCAR-3 ovarian cancer cell viability; at 35 µM, stronger effect = lower value unless noted
Potency and affinity values are given separately. Records with an inconclusive call do not appear. The source made the active and inactive calls. The rule behind the calls is not given here.
readout: max activity

Example cases with answers are listed next.
cpd.smiles | max activity
C[C@@H]1CCCCO[C@H](CN(C)C(=O)Nc2ccc(C(F)(F)F)cc2)[C@H](C)CN([C@@H](C)CO)C(=O)c2cc(NS(=O)(=O)c3ccc(Cl)cc3)ccc2O1 | -7.31% (inactive)
COCCNC(=O)C[C@@H]1C[C@H]2c3cc(NC(=O)Nc4ccc(C(F)(F)F)cc4)ccc3O[C@H]2[C@H](CO)O1 | -18.8% (inactive)
C[C@@H]1CCCCO[C@H](CN(C)Cc2ccc(C(F)(F)F)cc2)[C@@H](C)CN([C@@H](C)CO)C(=O)c2cc(NS(=O)(=O)c3ccc(Cl)cc3)ccc2O1 | -151% (inactive)
C[C@H](CO)N1C[C@H](C)[C@@H](CN(C)Cc2ccc(-c3ccccc3)cc2)Oc2ccc(NS(=O)(=O)c3ccccc3)cc2CC1=O | 6.95% (inactive)
C[C@@H]1CCCCO[C@@H](CN(C)C(=O)Nc2ccc(F)cc2)[C@H](C)CN([C@H](C)CO)C(=O)c2cc(NS(=O)(=O)c3ccc(Cl)cc3)ccc2O1 | 17.7% (inactive)

Give its max activity value. Item: `C[C@@H]1CCCCO[C@H](CN(C)S(=O)(=O)c2ccc(F)cc2)[C@H](C)CN([C@@H](C)CO)C(=O)c2cc(NS(=O)(=O)c3ccc(Cl)cc3)ccc2O1`
-28.2% (inactive)

So what's the measured max activity for this one? `O=C(C[C@@H]1C[C@H]2c3cc(NC(=O)Nc4ccc(C(F)(F)F)cc4)ccc3O[C@H]2[C@H](CO)O1)NCCc1ccccc1`
13% (inactive)

Quick one: max activity for `Cc1ccc(S(=O)(=O)Nc2ccc3c(c2)C(=O)N([C@H](C)CO)C[C@H](C)[C@H](CN(C)C(=O)c2ccccc2)OCCCC[C@H](C)O3)cc1` ?
-23.6% (inactive)

Look up max activity for this molecule: `C[C@H](CO)N1C[C@H](C)[C@@H](CN(C)Cc2ccc(Cl)c(Cl)c2)Oc2ccc(NC(=O)Nc3ccc(F)cc3)cc2CC1=O`
-44% (inactive)

* * *

target.under.test: E3 ubiquitin-protein ligase XIAP (Homo sapiens) (UniProt P98170)
Sequence (P98170 whole entry, looked up): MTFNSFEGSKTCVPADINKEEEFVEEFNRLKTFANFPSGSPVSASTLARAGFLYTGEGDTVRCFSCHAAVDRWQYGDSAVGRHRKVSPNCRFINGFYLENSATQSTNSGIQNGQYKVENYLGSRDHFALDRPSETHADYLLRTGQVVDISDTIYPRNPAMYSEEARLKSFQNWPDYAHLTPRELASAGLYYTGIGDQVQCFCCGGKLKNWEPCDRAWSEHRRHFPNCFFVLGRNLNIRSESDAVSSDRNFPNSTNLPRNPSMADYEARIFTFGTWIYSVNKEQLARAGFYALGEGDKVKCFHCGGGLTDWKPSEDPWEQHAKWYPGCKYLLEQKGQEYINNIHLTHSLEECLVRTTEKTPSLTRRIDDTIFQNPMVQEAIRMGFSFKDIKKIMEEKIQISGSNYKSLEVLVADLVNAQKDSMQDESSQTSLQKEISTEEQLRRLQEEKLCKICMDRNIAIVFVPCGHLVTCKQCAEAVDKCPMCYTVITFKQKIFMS
assay.overview: XIAP binders, primary screen, biophysical, small-molecule microarray, fluorescence 635 nm (AID 1181);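 note: score merges 667 nm emission and signal to noise over triplicate slides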
condition: small-molecule microarray binding, higher = more signal
readout: composite z-score
Respond using a number only.

compound | target.under.test | readout | reported.result
COc1ccc([Si](C)(C)[C@H]2[C@H](CC(=O)N(CCO)Cc3ccccc3)O[C@@]3(C(=O)N(Cc4ccc(N5CCC5=O)cc4)c4ccccc43)[C@@H]2C)cc1 | E3 ubiquitin-protein ligase XIAP (Homo sapiens) (UniProt P98170) | composite z-score | -0.0948
CO[C@H]1O[C@H](CO)[C@@H](OC(=O)Nc2ccccc2)[C@H](OC(=O)Nc2ccc3c(c2)OCO3)[C@H]1OC(=O)Nc1ccc2c(c1)OCO2 | E3 ubiquitin-protein ligase XIAP (Homo sapiens) (UniProt P98170) | composite z-score | 0.137
O=C1N(CCS(=O)(=O)c2ccccc2)Cc2ccccc2[C@@H]2OC(c3ccc(OCCCO)cc3)=N[C@]12Cc1ccccc1 | E3 ubiquitin-protein ligase XIAP (Homo sapiens) (UniProt P98170) | composite z-score | -0.121

What value of composite z-score has been recorded for this entry: `C=CCNC(=O)[C@H]1[C@@H]2C(=O)O[C@@H](c3ccccc3)[C@@H](c3ccccc3)N2[C@@H](c2ccc(OCCO)cc2)[C@]12C(=O)Nc1ccc(C#CCCO)cc12`
-0.0371

May I ask what composite z-score has been recorded for CC1CC/C=C\[C@H]2OC34C=CCN(C(C)C)C(=O)[C@H]3N(C(CO)C(C)C)C(=O)[C@@H]4C2C(=O)O1 (stereo partly drawn) ?
-0.194
